- experimental.target: KRAS_G12D and cRAF (Homo sapiens, UniProt P01116, G12D)
- Construct: purchased
- Sequence (P01116 1-188 isoform P01116-2 G12D): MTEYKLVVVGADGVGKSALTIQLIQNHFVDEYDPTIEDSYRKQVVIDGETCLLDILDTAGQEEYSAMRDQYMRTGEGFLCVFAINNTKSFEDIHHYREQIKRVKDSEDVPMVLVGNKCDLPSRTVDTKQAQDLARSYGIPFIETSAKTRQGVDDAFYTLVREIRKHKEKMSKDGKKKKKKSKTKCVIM
- test.description: Inhibition of KRAS_G12D/cRAF binding (Cisbio binding kit, 665/615 ratio), Effect Embodiment B
- assay.conditions: read-out: GTP-KRAS-G12D:CRAF IC50
Counter-ions that a name gives are not always drawn.
readout.type: IC50 (nM)

compound | experimental.target | readout.type | meas.value
CC(C)(COc1nc(N2CC3CCC(C2)N3)c2cc(Cl)c(-c3cc(O)cc4ccccc34)c(F)c2n1)CN1C2CCC1COC2 (single isomer, unassigned) [Compound 120, dihydrochloride] | KRAS_G12D and cRAF (Homo sapiens, UniProt P01116, G12D) | IC50 | 72.7

a. Oc1cc(-c2c(Cl)cc3c(N4CC5CCC(C4)N5)nc(OC[C@@H]4CCCN4CC4CC4)nc3c2F)c2ccccc2c1 [Compound 172, dihydrochloride]
b. C[C@H]1COC[C@H](C)N1CCCOc1nc(N2CC3CCC(C2)N3)c2cc(Cl)c(-c3cc(O)cc4ccccc34)c(F)c2n1 (single isomer, unassigned)
Request: Returns the identifier with the smallest measured IC50 among a and b . Label of pick, please.
Result: a

----------
- experimental.target: KRAS-G12D and SOS1 (Homo sapiens, UniProt P01116, G12D)
- Sequence (P01116 1-188 isoform P01116-2 G12D): as above
- test.description: Inhibition of KRAS-G12D/SOS1 binding (Cisbio binding kit, 665/615 ratio), Effect Embodiment A
- assay.conditions: read-out: GTP-KRAS-G12D:SOS1 IC50
readout.type: IC50 (nM)

A. Oc1cc(Cl)c(C2CC2)c(-c2c(Cl)cc3c(N4CC5CCC(C4)N5)nc(OC[C@@]45CCCN4C[C@H](F)C5)nc3c2F)c1 (single isomer, unassigned) [Compound 198a]
B. CN(C)C1CN(c2nc(N3CC4CCCC3CN4)c3cc(Cl)c(-c4cc(O)cc5ccccc45)c(F)c3n2)C1 (single isomer, unassigned)
C. CN(C)C1CN(c2nc(N[C@@H]3C[C@H]4CCC[C@@H](C3)N4)c3cc(Cl)c(-c4cc(O)cc5ccccc45)c(F)c3n2)C1 (single isomer, unassigned)
D. Cn1cnc(Cn2ccc3ccc(CNCc4[nH]c5ccccc5c4[C@H]4NC(=O)c5ccc(O)cc54)cc32)c1 [BI-2852, reference compound]
Request: List by increasing IC50. Lab note: record answer as labels in requested order.
Result: A, D, B, C
(A: 11.4 nM, D: 238 nM, B: 629 nM, C: 187000 nM)

----------
- experimental.target: KRAS-G12D and SOS1 (Homo sapiens, UniProt P01116, G12D)
- test.description: Inhibition of KRAS-G12D/SOS1 binding (Cisbio binding kit, 665/615 ratio), Effect Embodiment A
- assay.conditions: read-out: GTP-KRAS-G12D:SOS1 IC50
pIC50: −log10 of the molar value. Counter-ions that a name gives are not always drawn.
readout.type: pIC50

molecule | readout.type | meas.value
Oc1cc(-c2c(Cl)cc3c(N4CC5CCC(C4)N5)nc(OCC4(CN5C6CCC5COC6)CCC4)nc3c2F)c2ccccc2c1 (single isomer, unassigned) [Compound 173, dihydrochloride] | pIC50 | 7.83

I. CN1CC2(CC2)C[C@H]1COc1nc(N2CC3CCC(C2)N3)c2cnc(-c3cc(O)cc4ccccc34)c(F)c2n1
II. C[C@@H]1CN(CCCOc2nc(N3CC4CCC(C3)N4)c3cc(Cl)c(-c4cc(O)cc5ccccc45)c(F)c3n2)C[C@H](C)O1 (single isomer, unassigned) [Compound 125, hydrochloride]
Request: Returns the identifier with the smallest measured pIC50 among I and II . Label of pick, please.
Result: II

----------
- experimental.target: KRAS_G12D and cRAF (Homo sapiens, UniProt P01116, G12D)
- test.description: Inhibition of KRAS_G12D/cRAF binding (Cisbio binding kit, 665/615 ratio), Effect Embodiment B
- assay.conditions: read-out: GTP-KRAS-G12D:CRAF IC50
- Protocol: Similarly, the first dilution point of the compound to be tested was its storage solution, and the solution was 3-fold diluted, with 11+0 points of dilution. Echo was used to transfer 0.2 μL gradient diluted solution of the compounds into a 384-well plate, with 2 duplicated wells for each compound, and the final concentration of DMSO was 1%. The solution was centrifuged for 1 min at 1000 rpm/min. IC50 of the compounds was fitted by Graphpad Prism 8 nonlinear regression equation: […]
Structures can show the parent of a compound that is named as a salt.
readout.type: IC50 (nM)

Look over these answered cases.
compound | IC50 / nM
C[C@@H](COc1nc(N2CC3CCC(C2)N3)c2cc(Cl)c(-c3cc(O)cc(Cl)c3C3CC3)c(F)c2n1)CN1C2CCC1COC2 (single isomer, unassigned) | 23.4
CN(C)C1CN(c2nc(N3C[C@@H]4CC[C@H]3CN4)c3cc(Cl)c(-c4cc(O)cc5ccccc45)c(F)c3n2)C1 (single isomer, unassigned) | 213

A. C[C@@H]1C[C@@H](COc2nc(N3CC4CCC(C3)N4)c3cnc(-c4cc(O)cc5ccccc45)c(F)c3n2)N(C)C1
B. C[C@@H]1COC[C@H](C)N1CCCOc1nc(N2CC3CCC(C2)N3)c2cc(Cl)c(-c3cc(O)cc4ccccc34)c(F)c2n1 (single isomer, unassigned)
C. CCc1c(F)ccc2cccc(-c3c(F)cc4c(N5CC6CCC(C5)N6)nc(OC[C@@]56CCCN5C[C@H](F)C6)nc4c3F)c12 (single isomer, unassigned) [Compound 280a, dihydrochloride]
Request: hey, can you rank those compounds up there by IC50? biggest number first please Lab note: record answer as labels in requested order.
Result: B, A, C
(B: 303 nM, A: 30.5 nM, C: 14.1 nM)

----------
- experimental.target: KRAS_WT and SOS1 (Homo sapiens)
- Sequence (P01116 1-188 isoform P01116-2): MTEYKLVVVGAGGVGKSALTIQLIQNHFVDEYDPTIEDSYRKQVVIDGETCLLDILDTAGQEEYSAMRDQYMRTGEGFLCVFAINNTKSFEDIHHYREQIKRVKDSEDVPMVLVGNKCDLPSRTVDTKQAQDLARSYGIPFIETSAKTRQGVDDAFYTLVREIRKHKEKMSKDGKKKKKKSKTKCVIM
pIC50: −log10 of the molar value. Counter-ions that a name gives are not always drawn.
readout.type: pIC50

I. Oc1cc(-c2c(Cl)cc3c(N4CC5CCC(C4)N5)nc(OCCN4C5CC6CC4CC(C5)O6)nc3c2F)c2ccccc2c1 (single isomer, unassigned) [Compound 238]
II. CN(C)C1CN(c2nc(N3CC4CCC(C3)N4)c3cc(Cl)c(-c4cc(O)cc5cccc(Cl)c45)c(F)c3n2)C1 (single isomer, unassigned) [Compound 65b]
III. CN(C)C1CN(c2nc(N3CC4CCC(C3)N4)c3cc(Cl)c(-c4cc(O)cc5cccc(F)c45)c(F)c3n2)C1 (single isomer, unassigned) [Compound 64b]
Request: Reorder the records above by pIC50 so that values decrease. Lab note: record answer as labels in requested order.
Result: II, III, I
(II: 6.57, III: 5.90, I: 5.51)

a. CCc1cccc2cc(O)cc(-c3c(F)cc4c(N5CC6CCC(C5)N6)nc(OC[C@H](C)CN5C6CCC5CC(OC)C6)nc4c3F)c12 (single isomer, unassigned) [Compound 286a, dihydrochloride]
b. CC(C)(COc1nc(N2CC3CCC(C2)N3)c2cc(Cl)c(-c3cc(O)cc4ccccc34)c(F)c2n1)CN1C2CCC1COC2 (single isomer, unassigned) [Compound 120, dihydrochloride]
Request: Returns the identifier with the smallest measured pIC50 among a and b . Label of pick, please.
Result: b
(b: 5.57, a: 6.58)

A. Oc1cc(-c2c(Cl)cc3c(N4CC5CCC(C4)N5)nc(OCCCN4C5COCC4C5)nc3c2F)c2ccccc2c1 (single isomer, unassigned) [Compound 200]
B. CN1CCC[C@H]1COc1nc(N2C[C@H]3C=C[C@@H](C2)N3)c2cnc(-c3cc(O)cc4ccccc34)c(F)c2n1 [Compound 159, diformate]
Request: Returns the identifier with the smallest measured pIC50 among A and B . Label of pick, please.
Result: A
(A: 5.60, B: 6.71)

1. Oc1cc(-c2c(Cl)cc3c(N4CC5CCC(C4)N5)nc(OCCC4(N5CCCC5)CC4)nc3c2F)c2ccccc2c1 (single isomer, unassigned) [Compound 117, dihydrochloride]
2. CN1C[C@@H]2C[C@@H]2[C@H]1COc1nc(N2CC3CCC(C2)N3)c2cnc(-c3cc(O)cc4ccccc34)c(F)c2n1 [Compound 140, dihydrochloride]
Request: Returns the identifier with the smallest measured pIC50 among 1 and 2 . Label of pick, please.
Result: 1
(1: 5.67, 2: 5.87)

----------
- experimental.target: KRAS-G12D and SOS1 (Homo sapiens, UniProt P01116, G12D)
- test.description: Inhibition of KRAS-G12D/SOS1 binding (Cisbio binding kit, 665/615 ratio), Effect Embodiment A
- assay.conditions: read-out: GTP-KRAS-G12D:SOS1 IC50
Counter-ions that a name gives are not always drawn.
readout.type: IC50 (nM)

Look over these answered cases.
compound | unit.spec | IC50
CN1CCC[C@H]1COc1nc(N2CCN[C@@H](CC#N)C2)c2cc(Cl)c(-c3cc(O)cc4ccccc34)c(F)c2n1 (single isomer, unassigned) [Compound 153a] | nM | 965
CN1CCN(c2nc(N3CC4CCC(C3)N4)c3cc(Cl)c(-c4cc(O)cc5ccccc45)c(F)c3n2)CC1 (single isomer, unassigned) [Compound 52b] | nM | 73900
Oc1cc(-c2c(Cl)cc3c(N4CC5CCC(C4)N5)nc(OCCCN4C5CCC4COC5)nc3c2F)c2ccccc2c1 (single isomer, unassigned) [Compound 106, dihydrochloride] | nM | 39.1

P. Oc1cc(-c2c(Cl)cc3c(N4CC5CCC(C4)N5)nc(OCC(F)CN4C5CCC4COC5)nc3c2F)c2ccccc2c1 (single isomer, unassigned) [Compound 179a]
Q. Oc1cc(-c2ncc3c(N4C[C@H]5CC[C@@H](C4)N5)nc(OCCc4ccccn4)nc3c2F)c2ccccc2c1
R. CN(C)C1CN(c2nc(N3CC4(CCNCC4)C3)c3cc(Cl)c(-c4cc(O)cc5ccccc45)c(F)c3n2)C1 (single isomer, unassigned) [Compound 10a]
Request: Write the entries in order, lowest recorded IC50 first. Lab note: record answer as labels in requested order.
Result: Q, P, R
(Q: 108 nM, P: 276 nM, R: 780 nM)

All figures here come from patent US20230365563A1.
